assay: chemical genetic growth profiling, strain panel (AID 1159580);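 further: tested at 20 µM; growth read once vehicle control cultures reached saturation at 30 °C; 1 = growth at the plate median or of vehicle wells; lower values mean less growth of the strain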; conditions: S. cerevisiae deletion strains, growth OD, locus YLR342W, strain FKS1, hits give low values
Hit rate of the full screen: of about 5,500 compounds, about 2,000 (36%) were called active. Inconclusive results (about 18%) are left out. This is one part of the list.
Listed here are compounds together with their documented normalized growth.
Respond numerically, and do not add a unit to the figure.

Solved cases below.
compound	normalized growth
CN1CCN(CCC=C2c3ccccc3Sc3ccc(S(=O)(=O)N(C)C)cc32)CC1	0.954
NC1C[C@H]1c1ccccc1 (stereo not given in full)	0.973
COc1ccc([C@H]2COc3c(ccc(O)c3OC)C2)c(OC)c1O	0.989
COc1ccc(C2C(=O)c3ccccc3C2=O)cc1	1

Please look at the following compound next.
Request: What does the data say about its normalized growth? Entry: `CC[C@H]1OC(=O)[C@H](C)[C@@H](O[C@H]2C[C@@](C)(OC)[C@@H](O)[C@H](C)O2)[C@H](C)[C@@H](O[C@@H]2O[C@H](C)C[C@H](N(C)C)[C@H]2O)[C@](C)(O)C[C@@H](C)[C@@H]2N[C@@H](COCCOC)O[C@H]([C@H]2C)[C@]1(C)O`
Response: 0.992

###

assay: chemical genetic growth profiling, strain panel (AID 1159580); conditions: S. cerevisiae deletion strains, growth OD, locus YOR316C, strain cot1
Screen size: about 5,500 compounds; about 2,000 (36%) were called active. About 18% were inconclusive and are not listed. Cut-off read from the data, not from the text of the source: active = normalized growth mostly below about 0.91 (no sharp cut-off); inconclusive = no clear call, values can overlap the other calls; inactive = mostly above about 0.92. This is one part of the list. *1 amine or outer side, *2 acyl side, *3 side chain or, on linkers, in order; H or OH if unused. Where a SMILES comes first, the peptide text is derived from it. Bridges are numbered along the chain shown (N, C = ends). [ ]: non-standard residue; d: D form. The star is where a group is joined. ξ: configuration not given here. ΔAla(E,3-NHCONH2) = NC(=O)N/C=C(/N)C(=O)O; X2 = NC1=NCCC(C(N[*:1])C(=O)[*:2])N1; ξβ3hOrn = NCCCC(N)CC(=O)*; Dap = NC[CH](N)C(=O)O
Hello, when you answer, please use one of the following outcomes: Y = active, N = inactive

Check out these entries, answers already filled in.
compound	group-label
CC(=O)c1cc2c(cc1O)OC(C)(C)C=C2	N
CC(=O)O[C@@H]1CC[C@]2(C)C3CC[C@]4(C)C(=O)CCC4C3CC[C@H]2C1 (some centres not stated)	N
NC[C@H]1O[C@H](O[C@H]2[C@H](O)[C@@H](O[C@H]3O[C@H](CO)[C@@H](O)[C@H](N)[C@H]3O)[C@H](N)C[C@@H]2N)[C@H](N)C[C@@H]1O	N
NCCCC(N)CC(=O)NCC1NC(=O)C(CO)NC(=O)C(N)CNC(=O)C(C2CCN=C(N)N2)NC(=O)/C(=C\NC(N)=O)NC1=O (stereo not drawn) (H-[Dap]S[Dap](ξβ3hOrn)[ΔAla(E,3-NHCONH2)][X2]; lactam 1-C; configuration not given here)	N
NC[C@H]1O[C@H](O[C@H]2C(O[C@@H]3O[C@H](CO)[C@@H](O)[C@H]3O)[C@@H](O)[C@H](N)C[C@@H]2N)[C@H](N)[C@@H](O)[C@@H]1O (some centres not stated)	N

Request: Each compound tested received a call. Report the one for C1CCC(C(CC2CCCCN2)C2CCCCC2)CC1 (configuration not stated) .
Response: N

Request: Here is the next compound: CC(=O)O[C@H]1CC[C@]2(C)C3CC(=O)[C@]4(C)C(C(C)=O)=CCC4C3CC[C@H]2C1 (some centres not stated)
Response: N

Request: Here is the next compound: CC(=O)O[C@H]1CC[C@]2(C)C3CC[C@@]4(C)C(CC5O[C@@]6(CCC(C)CO6)[C@@H](C)C54)C3CC[C@H]2C1 (some centres not stated)
Response: N

Request: Here is the next compound: `CN[C@@H]1[C@@H](O[C@H]2O[C@H](CO)[C@@H](N)[C@H](O)[C@H]2O)O[C@H]2C[C@@H](N)[C@H](O[C@H]3[C@H](O)[C@@H](O)[C@H](N)C[C@@H]3N)O[C@@H]2[C@@H]1O`
Response: N

Request: Here is the next compound: CC(=O)CC1CCCCN1 (configuration not stated)
Response: N

Request: Here is the next compound: COc1c2c(cc3c1OCO3)C13C=C[C@H](OC)CC1N(C2)CC3O (some centres not stated)
Response: N

Request: Here is the next compound: `CC(=O)Oc1cccc2c1C(=O)c1c(OC(C)=O)cc(C(=O)O)cc1C2=O`
Response: Y

Request: Here is the next compound: COC(=O)C[C@H]1C(C)(C)[C@@H](O)[C@@H]2CC3=C4C=C(OC)O[C@@H](c5ccoc5)[C@]4(C)CCC3[C@@]1(C)C2=O (some centres not stated)
Response: N

Request: Here is the next compound: `CC(=O)Oc1cccc(C(=O)O)c1OC(C)=O`
Response: N

Request: Here is the next compound: CC(=O)OC1CCC2(C)C3CC(=O)C4(C)C(CC5OC6(CCC(C)CO6)[C@@H](C)C54)C3CC[C@H]2C1 (some centres not stated)
Response: N

Request: Here is the next compound: CN1C(=O)CCS(=O)(=O)C1c1ccc(Cl)cc1 (configuration not stated)
Response: N

Request: Here is the next compound: `CC1(C)C=Cc2cc3ccc(=O)oc3cc2O1`
Response: N

###

assay: chemical genetic growth profiling, strain panel (AID 1159580);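 further: tested at 20 µM; growth read once vehicle control cultures reached saturation at 30 °C; 1 = growth at the plate median or of vehicle wells; lower values mean less growth of the strain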; conditions: S. cerevisiae deletion strains, growth OD, locus YJL095W, strain BCK1 (second series), hits give low values
Screen size: about 5,500 compounds; about 2,000 (36%) were called active. Not shown: some 18% with an inconclusive outcome. This is one part of the list.
Listed here are molecules together with their documented normalized growth.
Respond numerically, and do not add a unit to the figure.

Solved cases below.
>>> print(df.to_string())
                                   molecule       measure_name  numeric_result
0                     CCC1(CC)C(=O)C=CNC1=O  normalized growth           0.996
1  Cc1c(NC(=O)c2cccnc2)c(=O)n(-c2ccccc2)n1C  normalized growth               1
2  NC1C[C@H]1c1ccccc1 (some centres not stated)  normalized growth               1

Request: What does the data say about its normalized growth? Entry: `O=c1oc2c(O)c(O)cc3c(=O)oc4c(O)c(O)cc1c4c23`
Response: 0.675

Request: Here is the next molecule: `O=C1c2ccccc2C(=O)C1c1ccccc1`
Response: 1

Request: Here is the next molecule: `OCc1c[nH]c2ccccc12`
Response: 0.944

Request: Here is the next molecule: `NCCc1c[nH]c2ccccc12`
Response: 0.96

###

Listed here are compounds together with their documented normalized growth.
experiment: chemical genetic growth profiling, strain panel (AID 1159580);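 further: tested at 20 µM; growth read once vehicle control cultures reached saturation at 30 °C; 1 = growth at the plate median or of vehicle wells; lower values mean less growth of the strain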; conditions: S. cerevisiae deletion strains, growth OD, locus YHR094C, strain hxt1, hits give low values
Out of some 5,500 compounds screened, about 2,000 (36%) were called active. Inconclusive results (about 18%) are left out. The list shows a part of the results. *1 amine or outer side, *2 acyl side, *3 side chain or, on linkers, in order; H or OH if unused. Where a SMILES comes first, the peptide text is derived from it. Bridges are numbered along the chain shown (N, C = ends). [ ]: non-standard residue; d: D form. The star is where a group is joined. ξ: configuration not given here. ΔAla(E,3-NHCONH2) = NC(=O)N/C=C(/N)C(=O)O; X2 = NC1=NCCC(C(N[*:1])C(=O)[*:2])N1; ξβ3hOrn = NCCCC(N)CC(=O)*; Dap = NC[CH](N)C(=O)O
Respond numerically, and do not add a unit to the figure.

compound	numeric-result
CN1CCN(CCCN2c3ccccc3Sc3ccc(C(F)(F)F)cc32)CC1	0.0748

Please look at the following compound next.
Request: What does the data say about its normalized growth? Entry: NCCCC(N)CC(=O)NCC1NC(=O)C(CO)NC(=O)C(N)CNC(=O)C(C2CCN=C(N)N2)NC(=O)/C(=C\NC(N)=O)NC1=O (stereo not drawn) (H-[Dap]S[Dap](ξβ3hOrn)[ΔAla(E,3-NHCONH2)][X2]; lactam 1-C; configuration not given here)
Response: 1.01

###

Listed here are molecules together with their documented normalized growth.
experiment: chemical genetic growth profiling, strain panel (AID 1159580);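 further: tested at 20 µM; growth read once vehicle control cultures reached saturation at 30 °C; 1 = growth at the plate median or of vehicle wells; lower values mean less growth of the strain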; conditions: S. cerevisiae deletion strains, growth OD, locus YBR160W, strain CDC28, hits give low values
The whole screen tested about 5,500 compounds, of which about 2,000 (36%) were called active. Inconclusive results (about 18%) are left out. Some of the results follow.
Respond numerically, and do not add a unit to the figure.

Solved cases below.
                                   molecule       measure_name  numeric_result
0  C/C(=N/NC(=O)c1ccc(C(C)(C)C)cc1)c1ccccc1O  normalized growth            0.98
1   CCOC(=O)c1cnc2c(c(C)nn2C)c1Sc1nnc(SC)s1  normalized growth           0.876
2  CS/C(Nc1cccc(C(F)(F)F)c1)=C(/C#N)S(=O)(=O)c1ccc(Cl)cc1  normalized growth           0.948
3  CC(C)(C)C(=O)c1sc2sc(C(=O)C(C)(C)C)c(N)c2c1N  normalized growth           0.994
4  N#C/C(=N/Nc1cccc(C(F)(F)F)c1)C(=O)c1csc(-c2cccnc2)n1  normalized growth           0.961

Request: What does the data say about its normalized growth? Entry: `O=c1c(-c2ccccc2)c(O)c2cccc3c4c(n1c23)CCCC4`
Response: 0.958

Request: Here is the next molecule: `Cn1nc(-c2ccccc2)c(O)c(N=Nc2ccccc2)c1=O`
Response: 0.976

Request: Here is the next molecule: `O=C(Nc1cccnc1)c1cc2c(s1)-c1ccccc1CC2`
Response: 0.93
